Test system: IMR90 cells
Assay: Secondary screening: senolytic activity, young vs senescent IMR90 cells, crystal violet
Type: cell-based, human
Settings: young vs Ras-induced senescent IMR90 cells; 5 μM and 10 μM; 72 hours; criterion of positivity 1.14 or more
measuredEndpoint: senolytic activity (young cell viability/senescent cell viability)

See these solved cases before continuing.
COC(=O)c1ccc2c(c1)NC(=O)/C2=C(\Nc1ccc(N(C)C(=O)CN2CCN(C)CC2)cc1)c1ccccc1 ... have senolytic activity
Cc1ccc(C(=O)Nc2cccc(C(F)(F)F)c2)cc1Nc1nc(-c2cccnc2)nc2c1cnn2C ... have senolytic activity
CC(C)c1cc(-c2ccc(F)c3ccccc23)nc(N)n1 ... have senolytic activity
C[S+]([O-])c1ccc(-c2nc(-c3ccncc3)c(-c3ccc(F)cc3)[nH]2)cc1 (stereo not drawn) ... have senolytic activity
CC[C@H](C)C(=O)O[C@H]1CCC=C2C=C[C@H](C)[C@H](CC[C@@H]3C[C@@H](O)CC(=O)O3)[C@H]21 ... have senolytic activity

For reference, reported senolytic activity (young cell viability/senescent cell viability) for `CN(C)C1CCN(C(=O)c2ccc(NC(=O)Nc3ccc(-c4nc(N5CCOCC5)nc(N5CCOCC5)n4)cc3)cc2)CC1` stands at have senolytic activity
